Each recorded value in this set is attributed to patent US11053204B2.

System: chickweed (common chickweed, Stellaria media)
Assay: Test C postemergence, plant response rating
Type: in vivo
Conditions: 62 g ai/ha, scale 0 to 100 (0 no effect, 100 complete control)

MOL	Chickweed plant response rating
O=C(CCC(F)(F)C(F)(F)F)c1c(Br)cccc1Oc1ncc(Cl)cn1	95
O=C(CCC(F)(F)F)c1c(Br)cccc1Oc1ncc(Cl)cn1	100
O=C(CCCCC(F)(F)F)c1c(Br)cccc1Oc1ncc(Cl)cn1	90
O=C(CCCC(F)(F)F)c1c(Oc2ncc(Cl)cn2)cccc1C(F)(F)F	90
FC(F)(F)CCCCc1c(Cl)cccc1Oc1ncc(Cl)cn1	90
FC(F)(F)CCCc1c(Br)cccc1Oc1ncc(Cl)cn1	85
FC(F)(F)CCCCc1c(Br)cccc1Oc1ncc(Cl)cn1	100

---

System: pigweed (Amaranthus retroflexus)
Assay: Test A preemergence, visual injury rating
Assay type: in vivo
Conditions: 125 g ai/ha, 0 to 100 scale (0 no effect, 100 complete control)
Entries and their Plant response rating, Pigweed values follow.

COMPOUND	TARGET_UNDER_TEST	Plant response rating, Pigweed
CC(=NOCCC(F)(F)F)c1c(Br)cccc1Oc1ncc(Cl)cn1 [Compound 98]	pigweed (Amaranthus retroflexus)	0
O=C(OCCC1CC1)c1c(Br)cccc1Oc1ncc(Cl)cn1 [Compound 123]	pigweed (Amaranthus retroflexus)	80
N#Cc1cccc(Oc2ncc(Cl)cn2)c1COCC(F)(F)C(F)(F)F [Compound 132]	pigweed (Amaranthus retroflexus)	100
O=C(OCCC(F)(F)F)c1c(OCC(F)(F)F)cccc1Oc1ncc(Cl)cn1 [Compound 117]	pigweed (Amaranthus retroflexus)	30
CCCCC(C#N)c1ccccc1Oc1ncc(Cl)cn1 (centres unmarked) [Compound 129]	pigweed (Amaranthus retroflexus)	100

---

Entries and their Wheat plant response rating values follow.
Test system: wheat (winter wheat, Triticum aestivum)
Test: Test C postemergence, plant response rating
Assay type: in vivo
Conditions: 125 g ai/ha, scale 0 to 100 (0 no effect, 100 complete control)

COMPOUND	Wheat plant response rating
FC(F)(F)CCCCc1c(Br)cccc1Oc1ncc(Cl)cn1 [Compound 138]	35
CCCC(=O)c1c(Oc2ncc(Cl)cn2)cccc1C(F)(F)F [Compound 136]	5
N#Cc1cccc(Oc2ncc(Cl)cn2)c1CCCC(F)(F)F [Compound 72]	5
CCCCC(=O)c1c(Br)cccc1Oc1ncc(Cl)cn1 [Compound 79]	15
O=C(CCCC(F)(F)F)c1c(Oc2ncc(Cl)cn2)cccc1C(F)(F)F [Compound 125]	25

---

Tested on: chickweed (common chickweed, Stellaria media)
Test: Test C postemergence, plant response rating
Type: in vivo
Settings: 125 g ai/ha, scale 0 to 100 (0 no effect, 100 complete control)

MOL	Chickweed plant response rating
CCCCC(=O)c1c(Oc2ncc(Cl)cn2)cccc1C(F)(F)F	90
FC(F)(F)CCCCc1c(Br)cccc1Oc1ncc(Cl)cn1	100
CCCC(=O)c1c(Br)cccc1Oc1ncc(Cl)cn1	98
FC(F)(F)CCCCc1c(Cl)cccc1Oc1ncc(Cl)cn1	100

---

Tested on: wheat (winter wheat, Triticum aestivum)
Assay: Test C preemergence, plant response rating
Assay type: in vivo
Conditions: Preemergence; 31 g ai/ha; scale 0 to 100

MOL	Plant response rating, Wheat
CCCCC(=O)c1c(Br)cccc1Oc1ncc(Cl)cn1	5
FC(F)(F)CCCc1c(Br)cccc1Oc1ncc(Cl)cn1	0
FC(F)(F)CCCCc1c(Br)cccc1Oc1ncc(Cl)cn1	5
C=C(Br)COC(=O)c1c(Br)cccc1Oc1ncc(Cl)cn1	0
